Molecular target: ABHD6 (Mus musculus)
Construct: Proteomes (mouse brain membrane fraction or cell lysates); from tissue; host or cells: mouse brain membrane fraction (or cell lysates, not specified)
Sequence (Q8R2Y0 1-336): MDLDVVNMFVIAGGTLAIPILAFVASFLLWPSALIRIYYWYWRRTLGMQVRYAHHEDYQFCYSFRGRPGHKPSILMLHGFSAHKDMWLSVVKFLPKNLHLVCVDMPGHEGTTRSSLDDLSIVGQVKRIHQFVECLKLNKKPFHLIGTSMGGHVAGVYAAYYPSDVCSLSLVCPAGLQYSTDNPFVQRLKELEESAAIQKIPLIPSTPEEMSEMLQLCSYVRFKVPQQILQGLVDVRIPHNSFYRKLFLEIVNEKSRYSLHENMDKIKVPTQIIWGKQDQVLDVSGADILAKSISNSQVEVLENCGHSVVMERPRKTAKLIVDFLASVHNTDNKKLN
Experiment: In vitro competitive activity-based protein profiling (gel-based, FP-Rh or HT-01 probe)
Type: biochemical
Conditions: 1 μM inhibitor; gel-based competitive ABPP; read-out: % Inhibition at 1 μM, C = ABHD6
Listing of recorded inhibition at 1 µM by entry.

# annotated cases, reported inhibition at 1 µM shown
{"molecule": "O=C(N1CCN(Cc2ccccc2Cl)CC1)n1cc(C(F)(F)F)cn1 [Example 275]", "inhibition at 1 µM": "> 75%"}
{"molecule": "CCN(Cc1ccc(OC)cc1)C(=O)n1cc(C(F)(F)F)cn1 [Example 259]", "inhibition at 1 µM": "< 25%"}

## Task Dear colleague, please send me the reported inhibition at 1 µM for CCN(Cc1cccc(C)c1)C(=O)n1cc(C#N)cn1 [Example 246] when you can.
## Result > 75%

---

Target: FAAH (Mus musculus)
Construct: Proteomes (mouse brain membrane fraction or cell lysates); from tissue; host or cells: mouse brain membrane fraction (or cell lysates, not specified)
Sequence (O08914 1-579): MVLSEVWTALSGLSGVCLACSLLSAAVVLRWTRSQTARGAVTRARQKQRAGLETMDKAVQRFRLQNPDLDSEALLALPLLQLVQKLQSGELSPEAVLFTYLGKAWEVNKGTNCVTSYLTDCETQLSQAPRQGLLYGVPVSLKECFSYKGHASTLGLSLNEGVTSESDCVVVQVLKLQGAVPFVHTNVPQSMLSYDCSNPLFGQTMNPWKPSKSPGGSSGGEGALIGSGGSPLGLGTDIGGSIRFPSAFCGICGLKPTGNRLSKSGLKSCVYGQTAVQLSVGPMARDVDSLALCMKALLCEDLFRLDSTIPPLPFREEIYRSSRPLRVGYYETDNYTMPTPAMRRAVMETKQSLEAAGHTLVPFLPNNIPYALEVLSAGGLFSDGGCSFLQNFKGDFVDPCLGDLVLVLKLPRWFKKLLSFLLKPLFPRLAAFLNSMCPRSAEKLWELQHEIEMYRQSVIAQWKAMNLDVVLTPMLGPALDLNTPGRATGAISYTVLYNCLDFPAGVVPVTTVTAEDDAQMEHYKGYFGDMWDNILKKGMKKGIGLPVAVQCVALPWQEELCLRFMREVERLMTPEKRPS
Test: In vitro competitive activity-based protein profiling (gel-based, FP-Rh or HT-01 probe)
Format: biochemical
Conditions: 1 μM inhibitor; read-out: % Inhibition at 1 μM, B = FAAH
measured endpoint: inhibition at 1 µM

{"structure notation": "O=C(c1cnn(C(=O)N2CCN(Cc3nccs3)CC2)c1)N1CCCCC1", "inhibition at 1 µM": "< 25%"}

## Task Give a short answer stating reported inhibition at 1 µM for "CC(=O)N1CCCN(C(=O)n2cc(C(F)(F)F)cn2)CC1" .
## Result < 25%

## Task Supply reported inhibition at 1 µM belonging to this compound: "O=C(N1CCN(Cc2ccc(-c3ccccc3)cc2Cl)CC1)n1cc(Cl)cn1"
## Result > 75%

---

target: ABHD6 (Mus musculus, UniProt Q8R2Y0); construct: Proteomes (mouse brain membrane fraction or cell lysates); from tissue; host or cells: mouse brain membrane fraction (or cell lysates, not specified); assay: In vitro competitive activity-based protein profiling (gel-based, FP-Rh or HT-01 probe); assay type: biochemical; conditions: 1 μM inhibitor; gel-based competitive ABPP; read-out: % Inhibition at 1 μM, C = ABHD6
measured endpoint: inhibition at 1 µM

## Task Identify the reported inhibition at 1 µM for the following entry. O=C(O)c1cnn(C(=O)N2CCN(Cc3ccc(Cl)cc3)CC2)c1 [Example 288]
## Result < 25%

## Task Indicate the recorded inhibition at 1 µM value for this compound: Cc1cnn(C(=O)NCc2ccc(OCc3ccccc3)cc2)c1 [Example 293]
## Result < 25%

## Task Output measured inhibition at 1 µM for this item: Cc1cnn(C(=O)N2CCCN(Cc3ccc(OCc4ccccc4)cc3)CC2)c1 [Example 302]
## Result < 25%

---

Molecular target: PLA2G7 (Mus musculus, UniProt Q60963)
Construct: Proteomes (mouse brain membrane fraction or cell lysates); from tissue; host or cells: mouse brain membrane fraction (or cell lysates, not specified)
Sequence (Q60963 22-440): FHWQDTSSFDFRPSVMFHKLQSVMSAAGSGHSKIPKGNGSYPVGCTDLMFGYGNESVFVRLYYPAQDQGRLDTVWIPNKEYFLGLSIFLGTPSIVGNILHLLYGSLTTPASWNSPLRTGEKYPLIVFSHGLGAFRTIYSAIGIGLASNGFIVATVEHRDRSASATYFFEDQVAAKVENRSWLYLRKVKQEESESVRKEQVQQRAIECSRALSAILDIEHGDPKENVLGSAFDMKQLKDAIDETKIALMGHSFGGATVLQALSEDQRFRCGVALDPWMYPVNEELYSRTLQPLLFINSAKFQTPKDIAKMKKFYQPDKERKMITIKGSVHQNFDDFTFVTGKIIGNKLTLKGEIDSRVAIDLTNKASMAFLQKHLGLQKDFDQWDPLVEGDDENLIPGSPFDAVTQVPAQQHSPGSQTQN
Assay: In vitro competitive activity-based protein profiling (gel-based, FP-Rh or HT-01 probe)
Assay type: biochemical
Conditions: mouse brain membrane fraction or cell lysates, 30 min preincubation at 37° C.
Catalogue of compounds with associated IC50

Recorded results for 5 compounds are shown here.
{"structure notation": "CCN(Cc1cccc(Cl)c1)C(=O)n1cc(C#N)cn1", "result value": "> 1000 nM"}
{"structure notation": "COc1ccccc1N1CCN(C(=O)n2cc(C(F)(F)F)cn2)CC1", "result value": "< 100 nM"}
{"structure notation": "O=C(N1CCN(Cc2ccccc2F)CC1)n1cc(C(F)(F)F)cn1", "result value": "< 100 nM"}
{"structure notation": "O=C(N1CCN(Cc2cccc(N3CCCC3)c2)CC1)n1cc(C(F)(F)F)cn1", "result value": "< 100 nM"}
{"structure notation": "N#Cc1cnn(C(=O)N2CCCN(C(=O)c3ccccc3)CC2)c1", "result value": "> 1000 nM"}

## Task Identify measured IC50 associated with "O=C(c1ccccc1)N1CCCN(C(=O)n2cc(C(F)(F)F)cn2)CC1"
## Result > 1000 nM

## Task For the compound "O=C(N1CCN(Cc2cccc(Oc3ccccc3)c2)CC1)n1cc(Cl)cn1" , give its measured IC50 value.
## Result > 1000 nM

## Task Supply IC50 value. Item: "Cc1cc(N2CCN(C(=O)n3cc(C(F)(F)F)cn3)CC2)c2ccccc2n1"
## Result < 100 nM

## Task // Input: "Cc1cc(-c2ccccc2)ccc1CN1CCN(C(=O)n2cc(C#N)cn2)CC1" . Output its IC50 only.
## Result < 100 nM

---

# reported inhibition at 1 µM; entries follow
Target: ABHD6 (Mus musculus, UniProt Q8R2Y0)
Construct: Proteomes (mouse brain membrane fraction or cell lysates); from tissue; host or cells: mouse brain membrane fraction (or cell lysates, not specified)
Sequence (Q8R2Y0 1-336): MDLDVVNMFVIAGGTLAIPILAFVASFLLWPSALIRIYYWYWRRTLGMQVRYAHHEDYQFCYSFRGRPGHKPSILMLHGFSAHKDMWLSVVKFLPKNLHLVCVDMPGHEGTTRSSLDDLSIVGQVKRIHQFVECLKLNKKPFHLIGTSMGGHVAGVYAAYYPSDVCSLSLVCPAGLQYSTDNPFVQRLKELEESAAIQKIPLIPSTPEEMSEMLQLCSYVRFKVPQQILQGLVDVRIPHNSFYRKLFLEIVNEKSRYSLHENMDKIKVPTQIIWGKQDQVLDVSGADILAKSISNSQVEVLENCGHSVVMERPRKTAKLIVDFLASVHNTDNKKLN
Test: In vitro competitive activity-based protein profiling (gel-based, FP-Rh or HT-01 probe)
Assay type: biochemical
Details: 1 μM inhibitor; read-out: % Inhibition at 1 μM, C = ABHD6

## Task State, in one line, measured inhibition at 1 µM of Cc1cnn(C(=O)N2CCN(C(=O)OC(C)(C)C)CC2)c1 [Example 5]
## Result 25 to 75%

---

Let's look at some compounds and their measured inhibition at 1 µM.
target: PLA2G7 (Mus musculus); construct: Proteomes (mouse brain membrane fraction or cell lysates); from tissue; host or cells: mouse brain membrane fraction (or cell lysates, not specified); experiment: In vitro competitive activity-based protein profiling (gel-based, FP-Rh or HT-01 probe); type: biochemical; conditions: 1 μM inhibitor; read-out: % Inhibition at 1 μM, D = PLA2G7

{"compound": "Cc1cc(N2CCN(C(=O)n3cc(-c4ccccc4)cn3)CC2)c2ccccc2n1 [Example 207]", "inhibition at 1 µM": "25 to 75%"}
{"compound": "O=C(N1CCN(Cc2ccccc2Cl)CC1)n1cc(Cl)cn1 [Example 224]", "inhibition at 1 µM": "< 25%"}

Now for a further compound.
## Task Fill in inhibition at 1 µM for CCN(Cc1cccc(Cl)c1)C(=O)n1cc(C#N)cn1 [Example 243] tested with PLA2G7 (Mus musculus).
## Result < 25%

Ref: patent US10093630B2
